Test: Plasma pharmacokinetics in tumor-bearing mice
Conditions: nude, mouse, in vivo, iv, 600 ug/kg
QUANTITY KIND: Cmax (ng/mL)
Express it in ng/mL; write the number only.

Request: Report Cmax, nothing else, for this compound: CC(C)[C@]12O[C@H]1[C@@H]1O[C@]13[C@]1(O[C@H]1C[C@H]1C4=C(CC[C@@]13C)C(=O)OC4)[C@@H]2O [TP, triptolide]
Response: 612
